Answer each item with its documented pIC50.
# experimentalTarget: RORγt (Homo sapiens (Human), UniProt P51449)
# Sequence (P51449 269-508): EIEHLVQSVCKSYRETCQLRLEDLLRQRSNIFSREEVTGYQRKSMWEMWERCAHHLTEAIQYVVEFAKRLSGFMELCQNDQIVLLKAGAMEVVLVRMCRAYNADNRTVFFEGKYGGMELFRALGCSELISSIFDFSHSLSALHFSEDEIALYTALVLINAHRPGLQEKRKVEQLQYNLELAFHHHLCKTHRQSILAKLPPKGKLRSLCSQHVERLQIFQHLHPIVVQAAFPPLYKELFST
# assayInfo: Gal4 ligand binding assay (RORγt Gal fusion luciferase reporter assay in HEK293T cells)
# statedConditions: RORγt inverse agonists in RORγt Gal fusion assay
pIC50: −log10 of the molar value.

(Q) Entry CCc1cc(CN2CC3(C2)CN(S(C)(=O)=O)C3)ccc1-c1ccc(C(O)(C(F)(F)F)C(F)(F)F)cc1F [Example 34] has what pIC50?
(A) > 7.30

(Q) // next record CCc1cc(C(O)(C(F)(F)F)C(F)(F)F)ccc1-c1c(F)cc(CN2CC3(C2)CN(S(C)(=O)=O)C3)c(F)c1CC [Example 71]
(A) > 7.30

(Q) // next record CCc1cc(CN2CC3(C2)CN(S(C)(=O)=O)C3)ccc1-c1ccc(C(O)(C(F)(F)F)C(F)(F)F)cc1Cl [Example 75]
(A) > 7.30

(Q) // next record CCc1cc(CN2CC3(C2)CS(=O)(=O)C3)ccc1-c1ccc(C(O)(C(F)(F)F)C(F)(F)F)cc1 [Example 26]
(A) 6.60 to 7.30

(Q) // next record CCc1cc(CN2CC3(C2)CS(=O)(=O)C3)ccc1-c1ccc(C(O)(C(F)(F)F)C(F)(F)F)cc1C [Example 18]
(A) > 7.30

(Q) // next record Cc1cc(C(O)(C(F)(F)F)C(F)(F)F)ccc1-c1ccc(CN2CCC3(C2)CS(=O)(=O)C3)cc1C(C)C [Example 11]
(A) > 7.30

(Q) // next record CCc1cc(CN2CC3(CSC3)C2)ccc1-c1ccc(C(O)(C(F)(F)F)C(F)(F)F)cc1 [Example 28]
(A) < 6.60

# credit: patent US11242350B2
